Data origin: PubChem BioAssay

- Test system: XIP peptide (Xip251-270)
- Assay summary: small-molecule binders of XIP peptide, primary screen, biochemical, small-molecule microarray, fluorescence 635/667 nm, 0.5 µg/mL protein (AID 1183)
- Condition label: small-molecule microarray binding, fluorescence 635 nm; higher = more signal
composite z-score for assorted molecules

Molecule	Tested system	composite z-score
C=CCC(OC(C)=O)[C@@H]1[C@@H](N(Cc2cccc3ccccc23)C(=O)Cc2ccc(OC)cc2)c2cc(OCCCO)ccc2N1C(=O)Cc1ccc(OC)cc1 (some centres undefined)	XIP peptide (Xip251-270)	-0.665
O=C1O[C@H](c2ccccc2)[C@H](c2ccccc2)N2[C@H]1[C@@H](C(=O)Nc1nc3ccccc3s1)[C@]1(C(=O)Nc3ccc(C#CCCO)cc31)[C@H]2c1ccccc1OCCO	XIP peptide (Xip251-270)	0.732
COc1ccc([Si](C)(C)[C@@H]2[C@@H](CCn3cc([C@H](O)c4ccccc4)nn3)O[C@]3(C(=O)N(C)c4c(Br)cc(C)cc43)[C@H]2C)cc1	XIP peptide (Xip251-270)	0.202
O=C(O)[C@H]1C[C@H]2C(=O)N[C@@H](Cc3ccccc3)C(=O)N2[C@H]1c1ccc(O)cc1	XIP peptide (Xip251-270)	0.923
